assay: Bioavailability study in rats (i.v. and p.o.); assay type: in vivo; details: male, SD, rat, plasma, iv, i.v. 0.3 mg/kg, 4 h
measure: concentration at 4 h (ng/mL)
One number for each entry, in ng/mL.

Sample CCN(Cc1ccccn1)C(=O)Cc1c(-c2ccc(Cl)c(Cl)c2)nc2cc(C)ccn12 — what was its concentration at 4 h? 1.84

----------
experiment: Bioavailability study in rats (i.v. and p.o.); assay type: in vivo; settings: male, SD, rat, plasma, po, p.o. 1 mg/kg, 1 h
measure: concentration at 1 h (ng/mL)
Give bare numbers, in ng/mL.

Sample CCN(Cc1ccccn1)C(=O)Cc1c(-c2ccc(Cl)c(Cl)c2)nc2cc(C)ccn12 [YL-IPA08] — what was its concentration at 1 h? 3
